Provenance of the data: patent EP4667466A1

Give measured inhibition at 1 µM for each item. Keep answers brief.
Target: MLLT1 (Homo sapiens, UniProt Q03111)
Construct: endogenous in cells; host or cells: MV4-11 (ATCC CRL-9591)
Sequence (Q03111 1-559): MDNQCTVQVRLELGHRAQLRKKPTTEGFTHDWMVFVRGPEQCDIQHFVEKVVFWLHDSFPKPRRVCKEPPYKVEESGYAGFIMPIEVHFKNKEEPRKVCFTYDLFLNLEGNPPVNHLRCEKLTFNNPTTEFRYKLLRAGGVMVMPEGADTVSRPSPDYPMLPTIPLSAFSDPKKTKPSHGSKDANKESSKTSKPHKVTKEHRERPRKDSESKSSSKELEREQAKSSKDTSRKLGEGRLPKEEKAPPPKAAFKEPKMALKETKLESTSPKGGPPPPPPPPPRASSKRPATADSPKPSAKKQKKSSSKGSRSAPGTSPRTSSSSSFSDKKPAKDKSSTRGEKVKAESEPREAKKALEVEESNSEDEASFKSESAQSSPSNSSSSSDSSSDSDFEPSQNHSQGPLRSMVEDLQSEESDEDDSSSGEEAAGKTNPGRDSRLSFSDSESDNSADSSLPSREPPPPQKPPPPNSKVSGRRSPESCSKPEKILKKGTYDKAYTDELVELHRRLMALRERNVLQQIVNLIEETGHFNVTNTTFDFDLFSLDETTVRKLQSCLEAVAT
Assay: MLLT1 degradation assay (JESS automated chemiluminescent detection) in MV4-11 cells
Assay type: cell-based
Conditions: 1 µM, 24h, with respect to DMSO control

With MLLT1 (Homo sapiens, UniProt Q03111) as the test system, Cc1nn(CCCCCCCCNc2cccc3c2C(=O)N(C2CCC(=O)NC2=O)C3=O)c2cc(C(=O)Nc3cc4[nH]c([C@H]5CCCN5C)cc4cn3)ccc12 (stereo partly drawn) showed inhibition at 1 µM of ≥ 75%

With MLLT1 (Homo sapiens, UniProt Q03111) as the test system, Cc1nn(CCCCCC2CCN(c3cccc4c3C(=O)N(C3CCC(=O)NC3=O)C4=O)CC2)c2cc(C(=O)Nc3cc4[nH]c([C@H]5CCCN5C)cc4cn3)ccc12 (stereo partly drawn) showed inhibition at 1 µM of ≥ 75%

With MLLT1 (Homo sapiens, UniProt Q03111) as the test system, Cc1c(OCCCCCCn2nc(C)c3ccc(C(=O)Nc4cc5[nH]c([C@H]6CCCN6C)cc5cn4)cc32)cccc1N1CCC(=O)NC1=O showed inhibition at 1 µM of 25 to 50%

With MLLT1 (Homo sapiens, UniProt Q03111) as the test system, Cc1nn(CCCCCCCCNc2cccc3c2CN(C2CCC(=O)NC2=O)C3=O)c2cc(C(=O)Nc3cc4[nH]c([C@H]5CCCN5C)cc4cn3)ccc12 (stereo partly drawn) showed inhibition at 1 µM of ≥ 75%

With MLLT1 (Homo sapiens, UniProt Q03111) as the test system, Cc1nn(CCCCCCCC#Cc2cccc(C(=O)N[C@H]3CCC(=O)NC3=O)c2F)c2cc(C(=O)Nc3cc4[nH]c([C@H]5CCCN5C)cc4cn3)ccc12 showed inhibition at 1 µM of ≥ 75%

With MLLT1 (Homo sapiens, UniProt Q03111) as the test system, Cc1c(C#CCCCCCn2nc(C)c3ccc(C(=O)Nc4cc5[nH]c([C@H]6CCCN6C)cc5cn4)cc32)cccc1C(=O)NC1CCC(=O)NC1=O (stereo partly drawn) showed inhibition at 1 µM of 50 to 75%
